Just for reference, patent US20110077248A1 is where these values come from.

# Tested on: SIRT1 (Homo sapiens, UniProt Q96EB6)
# Construct: His-tag (N); made in house; host or cells: E. coli BL21(DE3), T7-promoter vector
# Method description: Mass spectrometry based assay for modulators of SIRT1 activity (deacetylation of p53-based acetylated peptide)
# Assay type: biochemical
# Condition: concentration of test compound that results in 150% activation of SIRT1; 0.5 μM peptide substrate, 120 μM βNAD+, 10 nM SIRT1, 25 min, 25° C.
Readout label: EC1.5

These recorded examples may help you get a feel for the data.
O=C(Nc1ccccn1)c1nccn2cc(-c3ccc(N4CCCC4)cc3)nc12 [Compound 169] :: C (EC1.5>25 uM)
O=C(Nc1ccccc1)c1cccn2cc(-c3cccc(C(F)(F)F)c3)nc12 [Compound 113] :: C (EC1.5>25 uM)
O=C(Nc1cnccn1)c1nccn2cc(-c3ccc(F)cc3C(F)(F)F)nc12 [Compound 247] :: B (EC1.5 1-25 uM)
O=C(Nc1cccn2cc(-c3cccc(C(F)(F)F)c3)nc12)c1cccnc1 [Compound 120] :: C (EC1.5>25 uM)
O=C(Nc1cccnn1)c1nccn2cc(-c3ccccc3C(F)(F)F)nc12 [Compound 174] :: B (EC1.5 1-25 uM)
O=C(Nc1ccccn1)c1cccn2nc(-c3ccccc3OC(F)(F)F)nc12 [Compound 228] :: B (EC1.5 1-25 uM)

*Q* Recorded EC1.5 of Cc1ccc(-c2nc3c(C(=O)Nc4nccs4)cccn3n2)cn1 [Compound 210] , please.
*A* C (EC1.5>25 uM)

###

# Tested on: SIRT1 (Homo sapiens, UniProt Q96EB6)
# Construct: His-tag (N); made in house; host or cells: E. coli BL21(DE3), T7-promoter vector
# Method description: Mass spectrometry based assay for modulators of SIRT1 activity (deacetylation of p53-based acetylated peptide)
# Format: biochemical
# Condition: concentration of test compound that results in 150% activation of SIRT1; 0.5 μM peptide substrate, 120 μM βNAD+, 10 nM SIRT1, 25 min, 25° C.
Readout label: EC1.5

These recorded examples may help you get a feel for the data.
O=C(Nc1nccs1)c1cccn2nc(-c3ccccc3OC(F)(F)F)nc12 :: B (EC1.5 1-25 uM)
O=C(Nc1nccs1)c1nccn2cc(-c3cccc(C(F)(F)F)c3)nc12 :: C (EC1.5>25 uM)
O=C(Nc1nccs1)c1nccn2cc(-c3cccc(OC(F)(F)F)c3)nc12 :: C (EC1.5>25 uM)
Cc1ccc(-c2cn3ccnc(C(=O)Nc4nc(CN5CCOCC5)cs4)c3n2)cn1 :: B (EC1.5 1-25 uM)
O=C(Nc1nccs1)c1cccn2cc(-c3ccc(N4CCOCC4)cc3)nc12 :: C (EC1.5>25 uM)

*Q* # value lookup — system SIRT1 (Homo sapiens, UniProt Q96EB6), readout EC1.5, item O=C(Nc1cccn2cc(-c3ccccc3)nc12)C1CCNCC1
*A* C (EC1.5>25 uM)

*Q* And the next one, O=C(Nc1nccs1)c1cccn2nc(-c3ccc(F)cc3C(F)F)nc12 ?
*A* C (EC1.5>25 uM)

*Q* And the next one, Cc1csc(NC(=O)c2cccn3cc(-c4ccccc4)nc23)n1 ?
*A* B (EC1.5 1-25 uM)

*Q* And the next one, O=C(Nc1nc(CN2CCOCC2)cs1)c1nccn2cc(-c3ccc(F)c(F)c3)nc12 ?
*A* B (EC1.5 1-25 uM)

###

# Tested on: SIRT1 (Homo sapiens, UniProt Q96EB6)
# Construct: His-tag (N); made in house; host or cells: E. coli BL21(DE3), T7-promoter vector
# Method description: Mass spectrometry based assay for modulators of SIRT1 activity (deacetylation of p53-based acetylated peptide)
# Type: biochemical
# Condition: concentration of test compound that results in 150% activation of SIRT1; 0.5 μM peptide substrate, 120 μM βNAD+, 10 nM SIRT1, 25 min, 25° C.
Readout label: EC1.5

O=C(Nc1ccncn1)c1nccn2cc(-c3ccc(F)cc3C(F)(F)F)nc12 :: A (EC1.5<1.0 uM)
O=C(Nc1ccccn1)c1cccn2cc(-c3cccc(C(F)F)c3)nc12 :: A (EC1.5<1.0 uM)
O=C(Nc1nc(CN2CCOCC2)cs1)c1cccn2cc(-c3ccc(F)cc3F)nc12 :: A (EC1.5<1.0 uM)

###

# Tested on: SIRT1 (Homo sapiens, UniProt Q96EB6)
# Construct: His-tag (N); made in house; host or cells: E. coli BL21(DE3), T7-promoter vector
# Sequence (Q96EB6 1-747): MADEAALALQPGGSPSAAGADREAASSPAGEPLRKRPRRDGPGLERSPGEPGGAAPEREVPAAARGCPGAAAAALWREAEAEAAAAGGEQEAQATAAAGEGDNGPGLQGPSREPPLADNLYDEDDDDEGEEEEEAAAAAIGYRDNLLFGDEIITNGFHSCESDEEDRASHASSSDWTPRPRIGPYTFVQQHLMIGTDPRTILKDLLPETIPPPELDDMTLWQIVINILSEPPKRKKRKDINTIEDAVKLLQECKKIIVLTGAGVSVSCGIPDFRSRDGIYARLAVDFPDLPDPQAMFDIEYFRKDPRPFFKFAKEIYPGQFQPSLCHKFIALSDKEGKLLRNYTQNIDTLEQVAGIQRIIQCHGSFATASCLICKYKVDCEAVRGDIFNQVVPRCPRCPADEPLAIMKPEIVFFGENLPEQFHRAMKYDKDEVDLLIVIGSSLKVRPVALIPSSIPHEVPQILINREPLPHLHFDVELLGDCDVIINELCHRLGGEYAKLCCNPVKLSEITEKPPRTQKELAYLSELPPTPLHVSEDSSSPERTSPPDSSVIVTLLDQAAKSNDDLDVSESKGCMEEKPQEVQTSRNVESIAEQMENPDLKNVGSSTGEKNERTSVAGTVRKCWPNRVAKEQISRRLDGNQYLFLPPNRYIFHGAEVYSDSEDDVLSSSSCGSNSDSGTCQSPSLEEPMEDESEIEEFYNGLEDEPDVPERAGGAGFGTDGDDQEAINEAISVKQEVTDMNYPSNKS
# Method description: Mass spectrometry based assay for modulators of SIRT1 activity (deacetylation of p53-based acetylated peptide)
# Format: biochemical
# Condition: percent maximum fold activation of SIRT1
Overview of reported Emax across a group of compounds:

These recorded examples may help you get a feel for the data.
O=C(Nc1cccc(CN2CCOCC2)n1)c1cccn2cc(-c3ccc(F)c(F)c3)nc12 [Compound 195] :: > 200%
Cc1cnc(NC(=O)c2nccn3cc(-c4ccccc4C(F)(F)F)nc23)s1 [Compound 173] :: > 200%
O=C(Nc1cccn2cc(-c3ccccc3)nc12)c1cnccn1 [Compound 102] :: < 200%

// below: Emax requested for another compound
*Q* Recorded Emax of Cc1cnc(NC(=O)c2nccn3cc(-c4ccc(F)cc4C(F)(F)F)nc23)s1 [Compound 190] , please.
*A* > 200%

###

# Tested on: SIRT1 (Homo sapiens, UniProt Q96EB6)
# Construct: His-tag (N); made in house; host or cells: E. coli BL21(DE3), T7-promoter vector
# Method description: Mass spectrometry based assay for modulators of SIRT1 activity (deacetylation of p53-based acetylated peptide)
# Type: biochemical
# Condition: percent maximum fold activation of SIRT1
Readout label: Emax

These recorded examples may help you get a feel for the data.
O=C(Nc1nccs1)c1cccn2cc(-c3ccc(N4CCCC4)cc3)nc12 :: < 200%
O=C(Nc1ccccn1)c1cccn2cc(-c3ccccc3F)nc12 :: < 200%

// below: Emax requested for another compound
*Q* Recorded Emax of O=C(Nc1nccs1)c1cccn2nc(-c3ccc(F)cc3C(F)F)nc12 , please.
*A* < 200%

###

Overview of reported Emax across a group of molecules:
# Tested on: SIRT1 (Homo sapiens)
# Construct: His-tag (N); made in house; host or cells: E. coli BL21(DE3), T7-promoter vector
# Method description: Mass spectrometry based assay for modulators of SIRT1 activity (deacetylation of p53-based acetylated peptide)
# Format: biochemical
# Condition: percent maximum fold activation of SIRT1

These recorded examples may help you get a feel for the data.
O=C(Nc1nccs1)c1cccn2nc(-c3ccc(OCCN4CCOCC4)cc3C(F)F)nc12 [Compound 265] :: < 200%
O=C(Nc1nccs1)c1cccn2cc(-c3ccc(C(F)F)cc3)nc12 [Compound 202] :: < 200%
O=C(Nc1cnccn1)c1nccn2cc(-c3ccccc3OC(F)(F)F)nc12 [Compound 245] :: > 200%
O=C(Nc1nccs1)c1nccn2cc(-c3ccc(N4CCCC4)cc3)nc12 [Compound 168] :: < 200%
O=C(Nc1ccccn1)c1cccn2nc(-c3cccc(N4CCOCC4)c3)nc12 [Compound 182] :: < 200%

*Q* Recorded Emax of O=C(Nc1nccs1)c1cccn2cc(-c3ccc(CN4CCOCC4)cc3)nc12 [Compound 262] , please.
*A* > 200%

*Q* And the next one, Cc1ccc(-c2cn3ccnc(C(=O)Nc4ccccn4)c3n2)cn1 [Compound 163] ?
*A* < 200%
